# PROTOCOL_SUMMARY: cells
# CONDITION_PARAMETERS: Homo sapiens, YCC-11, 72 h
# Description: Cytotoxicity against human HDACi-sensitive YCC-11 cells assessed as reduction in cell growth incubated for 72 hrs by MTS assay
RESULT_TYPE: IC50 (µM)
One number for each entry, in µM.

Ask: Complete the entry with IC50 for Nc1ccc(F)cc1NC(=O)c1ccc(CNC(=O)/C=C/c2cccnc2)cc1
Result: 17.1

====

# STUDY_SYSTEM: UniProt:Q9UQL6
# Sequence (Q9UQL6 whole entry, the tested form may be a part): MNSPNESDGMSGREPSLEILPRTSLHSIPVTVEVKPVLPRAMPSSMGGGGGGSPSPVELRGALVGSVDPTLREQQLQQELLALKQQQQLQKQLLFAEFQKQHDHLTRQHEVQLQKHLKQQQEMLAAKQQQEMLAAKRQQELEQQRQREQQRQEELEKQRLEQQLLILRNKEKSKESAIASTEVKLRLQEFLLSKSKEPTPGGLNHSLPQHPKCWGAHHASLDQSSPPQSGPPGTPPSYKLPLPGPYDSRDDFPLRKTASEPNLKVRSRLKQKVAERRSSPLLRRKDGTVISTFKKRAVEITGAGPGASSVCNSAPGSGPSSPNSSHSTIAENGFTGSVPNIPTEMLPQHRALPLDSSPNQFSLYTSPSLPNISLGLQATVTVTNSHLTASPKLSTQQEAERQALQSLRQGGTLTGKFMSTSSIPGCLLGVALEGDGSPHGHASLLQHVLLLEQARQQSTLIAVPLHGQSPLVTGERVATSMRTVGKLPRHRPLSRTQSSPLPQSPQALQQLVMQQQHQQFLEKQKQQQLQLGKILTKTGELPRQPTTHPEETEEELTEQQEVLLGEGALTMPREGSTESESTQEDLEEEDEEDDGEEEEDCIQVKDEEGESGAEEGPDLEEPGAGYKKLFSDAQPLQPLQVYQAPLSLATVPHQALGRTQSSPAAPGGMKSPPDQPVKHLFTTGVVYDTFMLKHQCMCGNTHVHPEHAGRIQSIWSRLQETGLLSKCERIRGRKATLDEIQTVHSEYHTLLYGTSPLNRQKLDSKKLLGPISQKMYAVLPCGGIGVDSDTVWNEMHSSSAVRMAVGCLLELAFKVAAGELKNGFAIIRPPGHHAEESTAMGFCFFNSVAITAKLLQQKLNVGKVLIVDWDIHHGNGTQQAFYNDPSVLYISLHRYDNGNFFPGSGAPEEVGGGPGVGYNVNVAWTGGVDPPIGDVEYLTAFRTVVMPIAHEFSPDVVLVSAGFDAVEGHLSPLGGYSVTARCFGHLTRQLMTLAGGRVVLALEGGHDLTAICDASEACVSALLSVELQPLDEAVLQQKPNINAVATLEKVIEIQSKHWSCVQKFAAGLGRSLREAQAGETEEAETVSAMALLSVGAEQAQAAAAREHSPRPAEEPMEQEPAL
# PROTOCOL_SUMMARY: Inhibition of human recombinant HDAC5 expressed in baculovirus using fluorogenic peptide p53 residues 379-382 (RHKK(Ac)AMC) as substrate by Fluorescence analysis
pIC50: −log10 of the molar value.
RESULT_TYPE: pIC50

Ask: Complete the entry with pIC50 for Nc1nc(Nc2ccc(F)c(Cl)c2)c2ncn(Cc3ccc(C(=O)Nc4ccccc4N)cc3)c2n1
Result: < 5.00
